target: T1, hPD-L1-His (human, UniProt Q9NZQ7 19-238); experiment: SPR (Biacore T200), antibody on Protein A chip, hPD-L1-His injected, 1:1 fit
T1 construct: Bought protein; also called hPD-L1-His (manufactured by Edison); not shown: His tag
T1 sequence (Q9NZQ7 19-238 limits assumed): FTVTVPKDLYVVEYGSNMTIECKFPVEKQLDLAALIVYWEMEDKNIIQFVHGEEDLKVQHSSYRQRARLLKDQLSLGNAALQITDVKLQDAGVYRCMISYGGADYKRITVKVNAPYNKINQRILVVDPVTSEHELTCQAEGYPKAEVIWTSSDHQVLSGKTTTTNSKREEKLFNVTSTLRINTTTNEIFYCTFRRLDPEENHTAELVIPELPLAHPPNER
kon overview
Form entry: enter the amount, then its unit.

The following binders have reported results that may help.
{"columns": ["binder", "readout_value"],
 "data": [
  ["3F2-H4K1-IgG1 (antibody, V domains shown) VH: DVQLQESGPGLVKPSETLSLTCTVSGYSITSGYNWHWIRQFPGNKLEWMGYIHHSSITNYNPSLKSRITISRDTSKNQFFLQLSSVTAEDTATFYCAREGYDYDWFAYWGQGTLVTVSS VL: DIVLTQSPDFQSVTPKEKVTITCRASQSISNNLHWYQQKPDESPKLLIKYASQSISGIPSRFSGSGSGTDFTLTINSVEAEDFAMYFCQQSKSWPFTFGQGTRLEIK", "1.33e+06 M⁻¹ s⁻¹"],
  ["3F2-H3K2-IgG1 (antibody, V domains shown) VH: DVQLQESGPGLVKPSETLSLTCTVSGYSITSGYNWHWIRQFPGNGLEWMGYIHHSSITNYNPSLKSRITISRDTSKNQFSLKLSSVTAEDTATFYCAREGYDYDWFAYWGQGTLVTVSS VL: DIVLTQSPDFQSVTPKEKVTLSCRASQSISNNLHWYQQKPDESPKLLIKYASQSISGIPSRFSGSGSGTDFTLTINSVEAEDFAMYFCQQSKSWPFTFGQGTRLEIK", "1.21e+06 M⁻¹ s⁻¹"]
]}

Turning now to a further record.
Ask: Complete the entry with kon for 3F2-H1K3-IgG1 (antibody, V domains shown) VH: QVQLQESGPGLVKPSETLSLTCTVSGYSITSGYNWHWIRQFPGNGLEWMGYIHHSSITNYNPSLKSRITISRDTSKNQFSLKLSSVTAADTATYYCAREGYDYDWFAYWGQGTLVTVSS VL: DIVLTQSPDTQSVTPKESVTLSCRASQSISNNLHWYQQKSHESPKLLIKYASQSISGIPSRFSGSGSGTDFTLTINSVEAEDFAMYFCQQSKSWPFTFGQGTRLEIK
Reply: 1.09e+06 M⁻¹ s⁻¹
